# Measurement description: self-splicing fitness, log relative to wild type (ln ratio); higher = more splicing; Tetrahymena group I intron in knt gene, E. coli kanamycin selection, DiMSum; sequences stand for … in CUCUCU…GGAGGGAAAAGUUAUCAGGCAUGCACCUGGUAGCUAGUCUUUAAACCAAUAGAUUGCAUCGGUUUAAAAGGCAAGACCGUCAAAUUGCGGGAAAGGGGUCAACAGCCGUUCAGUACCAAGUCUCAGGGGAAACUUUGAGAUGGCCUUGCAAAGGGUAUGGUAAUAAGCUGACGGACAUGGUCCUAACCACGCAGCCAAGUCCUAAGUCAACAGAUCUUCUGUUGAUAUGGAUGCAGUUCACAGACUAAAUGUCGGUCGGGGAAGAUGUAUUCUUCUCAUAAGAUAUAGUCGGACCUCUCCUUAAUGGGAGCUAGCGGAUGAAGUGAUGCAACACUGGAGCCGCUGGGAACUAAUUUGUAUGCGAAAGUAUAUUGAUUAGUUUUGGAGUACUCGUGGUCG;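 note: selection with 25 µg/mL kanamycin versus none on LB agar overnight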
# Experimental context: 37 °C
Below, each entry is listed with its recorded self-splicing fitness (ln).
Lab note: record the figure alone, no unit after it.

GAGGAGCAAUAUUACGAUCA -1.59
GUGUAGCAAUAUUACGGUAC -1.43
UCAUAGCAAUAUUACGCCGA 0.277
GAAAAGCAAUAUUACGUAGC -1.51
CAUCAGCAAUAUUACGCGUC -0.783

Query block: Item `GGGAAGCAAUAUUACGCCGA` has what recorded self-splicing fitness (ln)?
Result block: -0.238

Query block: Item `AAUUAGCAAUAUUACGCGCA` has what recorded self-splicing fitness (ln)?
Result block: 0.114

Query block: Item `CCAUAGCAAUAUUACGUCGC` has what recorded self-splicing fitness (ln)?
Result block: -3.74

Query block: Item `GAUGAGCAAUAUUACGACCA` has what recorded self-splicing fitness (ln)?
Result block: -3.8

Query block: Item `CGUGAGCAAUAUUACGGGAC` has what recorded self-splicing fitness (ln)?
Result block: -1.88
